target: EqBChE (butyrylcholinesterase from equine serum) (Equus caballus, UniProt P81908); construct: butyrylcholinesterase from equine serum (EqBChE); purchased Sigma-Aldrich (São Paulo, Brazil); host or cells: equine serum; test: biochemical; format: biochemical; conditions: modified Ellman's method, 37 °C, samples 1 to 100 µM, average ± standard deviation of three experiments
Sequence (P81908 whole entry): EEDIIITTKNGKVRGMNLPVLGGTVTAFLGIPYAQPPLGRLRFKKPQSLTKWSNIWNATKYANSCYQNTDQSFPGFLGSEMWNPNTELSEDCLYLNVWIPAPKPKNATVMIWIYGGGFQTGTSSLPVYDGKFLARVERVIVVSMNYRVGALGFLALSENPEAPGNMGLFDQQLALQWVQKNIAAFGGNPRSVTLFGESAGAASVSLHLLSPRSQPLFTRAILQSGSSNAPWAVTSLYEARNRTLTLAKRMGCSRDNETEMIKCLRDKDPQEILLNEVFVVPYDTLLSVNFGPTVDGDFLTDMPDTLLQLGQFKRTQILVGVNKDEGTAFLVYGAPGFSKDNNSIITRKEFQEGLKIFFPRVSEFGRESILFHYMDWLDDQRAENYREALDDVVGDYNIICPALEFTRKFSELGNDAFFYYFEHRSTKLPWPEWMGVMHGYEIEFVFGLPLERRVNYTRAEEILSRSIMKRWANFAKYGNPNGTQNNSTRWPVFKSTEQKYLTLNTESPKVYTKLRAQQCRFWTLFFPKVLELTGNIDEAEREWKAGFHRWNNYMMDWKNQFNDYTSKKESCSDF
measure: pIC50
The quantity pIC50 is defined as the negative base-10 logarithm of the molar concentration.

Reported pIC50 of CC1(C)CC(=NNC(=N)N)c2cc3cc4c(cc3nc2C1)OCO4 : 4.82

====

The listing below reports IC50 for molecules tested on EeAChE (AChE from Electrophorus electricus) (Electrophorus electricus, UniProt O42275).
Sequence (O42275 24-633): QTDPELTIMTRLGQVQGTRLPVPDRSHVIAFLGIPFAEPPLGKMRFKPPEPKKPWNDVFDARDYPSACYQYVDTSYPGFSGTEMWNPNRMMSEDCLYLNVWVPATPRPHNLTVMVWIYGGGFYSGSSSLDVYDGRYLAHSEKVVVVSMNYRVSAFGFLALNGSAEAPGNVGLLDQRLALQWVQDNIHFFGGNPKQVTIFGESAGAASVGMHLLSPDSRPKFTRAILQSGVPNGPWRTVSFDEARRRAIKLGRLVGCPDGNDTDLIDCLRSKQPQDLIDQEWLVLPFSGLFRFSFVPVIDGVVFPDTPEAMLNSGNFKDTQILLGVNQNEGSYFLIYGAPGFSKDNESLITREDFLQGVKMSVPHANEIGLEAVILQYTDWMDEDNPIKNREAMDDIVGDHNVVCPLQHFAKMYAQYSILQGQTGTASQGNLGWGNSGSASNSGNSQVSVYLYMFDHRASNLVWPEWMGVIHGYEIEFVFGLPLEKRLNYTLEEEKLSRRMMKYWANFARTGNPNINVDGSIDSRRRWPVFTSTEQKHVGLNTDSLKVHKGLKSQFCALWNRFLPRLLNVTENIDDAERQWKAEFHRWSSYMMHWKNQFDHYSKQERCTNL
Give the quantity in µM, number only.

{"columns": ["structure.as.smiles", "measure.unit", "IC50"],
 "data": [
  ["O=c1[nH]c(=O)c2cc3cc4c(cc3nc2[nH]1)OCO4", "µM", 32.1],
  ["CCOC(=O)c1cc2cc3c(cc2[nH]c1=O)OCO3", "µM", 62.8],
  ["CC1(C)CC(=O)c2cc3cc4c(cc3nc2C1)OCO4", "µM", 51.5],
  ["CC1(C)CC(=NNC(=N)N)c2cc3cc4c(cc3nc2C1)OCO4", "µM", 8.5]
]}

Reported IC50 of O=C(O)c1cc2cc3c(cc2[nH]c1=O)OCO3 : 14.2

Every entry's value here was drawn from paper PMC6720848.
